Molecular target: T1, K48-linked diubiquitin (human, UniProt P0CG48 1-76, isopeptide bond between Lys48 of one ubiquitin and the C-terminal Gly of the other)
T1 construct: Boston Biochem
Experiment: SPR Biacore, antigen immobilized
Listing of recorded kon by entry.
Note: a bare number is incomplete; add the unit.

# binder, kon
rows = [
    ("Fab apu2.04 (Fab, V domains shown) VH: EVQLVESGGGLVQPGGSLRLSCAASGFNISYSSMHWVRQAPGKGLEWVASIYSYYSYTSYADSVKGRFTISADTSKNTAYLQMNSLRAEDTAVYYCARSYSYSFGMDYWGQGTLVTVSS VL: DIQMTQSPSSLSASVGDRVTITCRASQSVSSAVAWYQQKPGKAPKLLIYSASSLYSGVPSRFSGSRSGTDFTLTISSLQPEDFATYYCQQSSYSSLITFGQGTKVEIK", "622000 M⁻¹ s⁻¹"),
]

Let us move to another entry and its kon.
Prompt: Which value of kon has been reported for Fab apu2.06 (Fab, V domains shown) VH: EVQLVESGGGLVQPGGSLRLSCAASGFNISYSSMHWVRQAPGKGLEWVASIYSYYSYTSYADSVKGRFTISADTSKNTAYLQMNSLRAEDTAVYYCARGYSWFNAIDYWGQGTLVTVSS VL: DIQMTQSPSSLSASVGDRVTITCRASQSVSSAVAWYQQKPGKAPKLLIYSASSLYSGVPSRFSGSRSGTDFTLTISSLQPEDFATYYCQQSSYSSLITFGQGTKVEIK in the records?
Response: 1.28e+06 M⁻¹ s⁻¹
